- Assay Protocol: Pharmacokinetics in rats
- Assay type: in vivo, rat
- Test Conditions: male, SD, rat, plasma, po, 50 mg/kg, rats, single oral 50 mg/kg; read-out: time to peak plasma concentration (converted)
- Method: Male SD rats (200–220 g) were fasted overnight to administration of CMD-05 intravenously via tail vein (50 mg/kg, n = 4) or by oral gavage (50 mg/kg, n = 4). […] The concentrations of CMD-05 in plasma were determined by HPLC method. The pharmacokinetic parameters of CMD-05 in the rats were analyzed by DAS2 software.
Measured Metric: Tmax
Answer with the number, then the unit.

Exercise: Name the reported Tmax value associated with the molecule N#C[C@@H]1CCCN1C(=O)CN(C(=O)CCCCCl)C12CC3CC(CC(O)(C3)C1)C2
Solution: 30 min

---

- Assay Protocol: Pharmacokinetics in rats
- Type: in vivo, rat
- Test Conditions: male, SD, rat, plasma; rats, 50 mg/kg oral vs intravenous; read-out: absolute bioavailability
Measured Metric: bioavailability

Exercise: Name the reported bioavailability value associated with the compound N#C[C@@H]1CCCN1C(=O)CN(C(=O)CCCCCl)C12CC3CC(CC(O)(C3)C1)C2 [CMD-05]
Solution: 84.5%
